Data provenance: ChEMBL document CHEMBL3885861

Organism: Rattus norvegicus
assay_explanation: Open TG-GATES - Regimen: Daily Repeat
Type: toxicity, organism-based, Sprague-Dawley
Set-up: regimen Daily Repeat, gender Male, age 6 weeks
study_conditions: in vivo, po, 300 mg/kg, […], tissue Blood, route gavage, dose level Middle, time 14 day
recorded_endpoint: Fbg (mg/dL)
Answers are plain numbers, in mg/dL.

List reported Fbg for each of these compounds:
1. NC(N)=Nc1nc(CSCCC(N)=NS(N)(=O)=O)cs1
2. COC1=CC(=O)C[C@@H](C)[C@]12Oc1c(Cl)c(OC)cc(OC)c1C2=O
3. CCOC(=O)CCC(=O)O[C@H]1[C@H](O[C@@H]2[C@@H](C)[C@H](O[C@H]3C[C@@](C)(OC)[C@@H](O)[C@H](C)O3)[C@@H](C)C(=O)O[C@H](CC)[C@@](C)(O)[C@H](O)[C@@H](C)C(=O)[C@H](C)C[C@@]2(C)O)O[C@H](C)C[C@@H]1N(C)C [ERYTHROMYCIN ETHYLSUCCINATE]

A:
1: 224; 2: 228.6; 3: 335.6

List reported Fbg for each of these compounds:
1. COc1ccc2[nH]c([S+]([O-])Cc3ncc(C)c(OC)c3C)nc2c1 (stereo not given)
2. CCOc1ccc(NC(=O)CC(C)O)cc1 (stereo not given)

A:
1: 211.4; 2: 312

###

Please go through the items and note down their KIDNEY_TOTAL.
Species: Rattus norvegicus
assay_explanation: Open TG-GATES - Regimen: Daily Repeat
Type: toxicity, organism-based, Sprague-Dawley
Parameters: regimen Daily Repeat, gender Male, age 6 weeks
study_conditions: in vivo, po, 0 mg/kg, […], tissue Kidney, route gavage, dose level Control, time 14 day

Illustrative cases are given below, each with its answer.
>>> result("CCOc1ccc(NC(=O)CC(C)O)cc1 (stereo not drawn)")
"2.8 g"
>>> result("COc1ccc2[nH]c([S+]([O-])Cc3ncc(C)c(OC)c3C)nc2c1 (stereo not drawn)")
"2.5 g"
>>> result("CN1C(=O)CN=C(c2ccccc2)c2cc(Cl)ccc21")
"2.7 g"
>>> result("CCOC(=O)CCC(=O)O[C@H]1[C@H](O[C@@H]2[C@@H](C)[C@H](O[C@H]3C[C@@](C)(OC)[C@@H](O)[C@H](C)O3)[C@@H](C)C(=O)O[C@H](CC)[C@@](C)(O)[C@H](O)[C@@H](C)C(=O)[C@H](C)C[C@@]2(C)O)O[C@H](C)C[C@@H]1N(C)C [ERYTHROMYCIN ETHYLSUCCINATE]")
"2.6 g"

List reported KIDNEY_TOTAL for each of these compounds:
1. NC(N)=Nc1nc(CSCCC(N)=NS(N)(=O)=O)cs1
2. CC1=C(/C=C/C(C)=C/C=C/C(C)=C/CO)C(C)(C)CCC1
3. CCCNC(=O)NS(=O)(=O)c1ccc(Cl)cc1 [CHLORPROPAMIDE]
4. CN(C)CCN(Cc1cccs1)c1ccccn1
5. CN(C)CCCN1c2ccccc2CCc2ccccc21
6. O=C(CCCN1CCC(O)(c2ccc(Cl)cc2)CC1)c1ccc(F)cc1
7. NNC(=O)c1ccncc1
8. COC1=CC(=O)C[C@@H](C)[C@]12Oc1c(Cl)c(OC)cc(OC)c1C2=O

A:
1. 2.5 g
2. 2.4 g
3. 2.4 g
4. 2.3 g
5. 2.5 g
6. 2.4 g
7. 2.2 g
8. 2.4 g

Q: For the compound CC(C)OC(=O)C(C)(C)Oc1ccc(C(=O)c2ccc(Cl)cc2)cc1 [FENOFIBRATE] , what KIDNEY_TOTAL is on record?
A: 2.4 g

###

Organism: Rattus norvegicus
assay_explanation: Open TG-GATES - Regimen: Daily Repeat
Format: toxicity, organism-based, Sprague-Dawley
Design: regimen Daily Repeat, gender Male, age 6 weeks
study_conditions: in vivo, po, 0 mg/kg, 72 h, tissue Plasma, route gavage, dose level Control, time 3 day
recorded_endpoint: CRE (mg/dL)
One number for each entry, in mg/dL.

Illustrative cases are given below, each with its answer.
>>> result_number("O=C(CCCN1CCC(O)(c2ccc(Cl)cc2)CC1)c1ccc(F)cc1 [HALOPERIDOL]")
0.6
>>> result_number("CCCNC(=O)NS(=O)(=O)c1ccc(Cl)cc1 [CHLORPROPAMIDE]")
0.2
>>> result_number("NC(N)=Nc1nc(CSCCC(N)=NS(N)(=O)=O)cs1 [FAMOTIDINE]")
0.4
>>> result_number("CN1C(=O)CN=C(c2ccccc2)c2cc(Cl)ccc21 [DIAZEPAM]")
0.5

// below: CRE requested for another compound
Q: For the compound CN(C)CCN(Cc1cccs1)c1ccccn1 , what CRE is on record?
A: 0.2

###

Organism: Rattus norvegicus
assay_explanation: Open TG-GATES - Regimen: Daily Repeat
Format: toxicity, organism-based, Sprague-Dawley
Parameters: regimen Daily Repeat, gender Male, age 6 weeks
study_conditions: in vivo, po, 10 mg/kg, 72 h, tissue Plasma, route gavage, dose level Low, time 3 day
recorded_endpoint: RALB (g/dL)
One number for each entry, in g/dL.

Illustrative cases are given below, each with its answer.
>>> result_number("CN(C)CCCN1c2ccccc2CCc2ccccc21")
2.6
>>> result_number("CN(C)CCN(Cc1cccs1)c1ccccn1")
2.9
>>> result_number("CC1=C(/C=C/C(C)=C/C=C/C(C)=C/CO)C(C)(C)CCC1")
3.2

// below: RALB requested for another compound
Q: For the compound CC(C)OC(=O)C(C)(C)Oc1ccc(C(=O)c2ccc(Cl)cc2)cc1 [FENOFIBRATE] , what RALB is on record?
A: 2.6

###

Organism: Rattus norvegicus
assay_explanation: Open TG-GATES - Regimen: Single
Type: toxicity, organism-based, Sprague-Dawley
Design: regimen Single, gender Male, age 6 weeks
study_conditions: in vivo, po, 1000 mg/kg, 6 h, tissue Blood, route gavage, dose level High
recorded_endpoint: Ret (%)
Give bare numbers, in %.

Illustrative cases are given below, each with its answer.
>>> result_number("COC1=CC(=O)C[C@@H](C)[C@]12Oc1c(Cl)c(OC)cc(OC)c1C2=O [GRISEOFULVIN]")
7.7
>>> result_number("CCOC(=O)CCC(=O)O[C@H]1[C@H](O[C@@H]2[C@@H](C)[C@H](O[C@H]3C[C@@](C)(OC)[C@@H](O)[C@H](C)O3)[C@@H](C)C(=O)O[C@H](CC)[C@@](C)(O)[C@H](O)[C@@H](C)C(=O)[C@H](C)C[C@@]2(C)O)O[C@H](C)C[C@@H]1N(C)C [ERYTHROMYCIN ETHYLSUCCINATE]")
7.9
>>> result_number("COc1ccc2[nH]c([S+]([O-])Cc3ncc(C)c(OC)c3C)nc2c1 (stereo not given) [OMEPRAZOLE]")
7.1
>>> result_number("CC(C)OC(=O)C(C)(C)Oc1ccc(C(=O)c2ccc(Cl)cc2)cc1 [FENOFIBRATE]")
10

// below: Ret requested for another molecule
Q: For the molecule NC(N)=Nc1nc(CSCCC(N)=NS(N)(=O)=O)cs1 [FAMOTIDINE] , what Ret is on record?
A: 6.9

###

Please go through the items and note down their CRE.
Species on record: Rattus norvegicus
assay_explanation: Open TG-GATES - Regimen: Single
Format: toxicity, organism-based, Sprague-Dawley
Design: regimen Single, gender Male, age 6 weeks
study_conditions: in vivo, po, 1000 mg/kg, 6 h, tissue Plasma, route gavage, dose level High

Illustrative cases are given below, each with its answer.
>>> result("COC1=CC(=O)C[C@@H](C)[C@]12Oc1c(Cl)c(OC)cc(OC)c1C2=O")
"0.3 mg/dL"
>>> result("CC(C)OC(=O)C(C)(C)Oc1ccc(C(=O)c2ccc(Cl)cc2)cc1 [FENOFIBRATE]")
"0.2 mg/dL"
>>> result("COc1ccc2[nH]c([S+]([O-])Cc3ncc(C)c(OC)c3C)nc2c1 (stereo not given)")
"0.4 mg/dL"
>>> result("CCOC(=O)CCC(=O)O[C@H]1[C@H](O[C@@H]2[C@@H](C)[C@H](O[C@H]3C[C@@](C)(OC)[C@@H](O)[C@H](C)O3)[C@@H](C)C(=O)O[C@H](CC)[C@@](C)(O)[C@H](O)[C@@H](C)C(=O)[C@H](C)C[C@@]2(C)O)O[C@H](C)C[C@@H]1N(C)C [ERYTHROMYCIN ETHYLSUCCINATE]")
"0.1 mg/dL"

// below: CRE requested for another compound
Q: For the compound NC(N)=Nc1nc(CSCCC(N)=NS(N)(=O)=O)cs1 , what CRE is on record?
A: 0.4 mg/dL

###

Species on record: Rattus norvegicus
assay_explanation: Open TG-GATES - Regimen: Single
Type: toxicity, organism-based, Sprague-Dawley
Design: regimen Single, gender Male, age 6 weeks
study_conditions: in vivo, po, 100 mg/kg, 24 h, tissue Blood, route gavage, dose level Low
recorded_endpoint: Plat (x10_4/uL)
Numbers only, in x10_4/uL.

Illustrative cases are given below, each with its answer.
>>> result_number("COc1ccc2[nH]c([S+]([O-])Cc3ncc(C)c(OC)c3C)nc2c1 (centres undefined)")
130.1
>>> result_number("CCOC(=O)CCC(=O)O[C@H]1[C@H](O[C@@H]2[C@@H](C)[C@H](O[C@H]3C[C@@](C)(OC)[C@@H](O)[C@H](C)O3)[C@@H](C)C(=O)O[C@H](CC)[C@@](C)(O)[C@H](O)[C@@H](C)C(=O)[C@H](C)C[C@@]2(C)O)O[C@H](C)C[C@@H]1N(C)C [ERYTHROMYCIN ETHYLSUCCINATE]")
122.9
>>> result_number("NC(N)=Nc1nc(CSCCC(N)=NS(N)(=O)=O)cs1")
121.8

// below: Plat requested for another molecule
Q: For the molecule COC1=CC(=O)C[C@@H](C)[C@]12Oc1c(Cl)c(OC)cc(OC)c1C2=O , what Plat is on record?
A: 117.6
